Values from patent US20250152585A1

Study target: full length N-terminally FLAG-tagged PARP1 (Homo sapiens)
Sequence (P09874 whole entry): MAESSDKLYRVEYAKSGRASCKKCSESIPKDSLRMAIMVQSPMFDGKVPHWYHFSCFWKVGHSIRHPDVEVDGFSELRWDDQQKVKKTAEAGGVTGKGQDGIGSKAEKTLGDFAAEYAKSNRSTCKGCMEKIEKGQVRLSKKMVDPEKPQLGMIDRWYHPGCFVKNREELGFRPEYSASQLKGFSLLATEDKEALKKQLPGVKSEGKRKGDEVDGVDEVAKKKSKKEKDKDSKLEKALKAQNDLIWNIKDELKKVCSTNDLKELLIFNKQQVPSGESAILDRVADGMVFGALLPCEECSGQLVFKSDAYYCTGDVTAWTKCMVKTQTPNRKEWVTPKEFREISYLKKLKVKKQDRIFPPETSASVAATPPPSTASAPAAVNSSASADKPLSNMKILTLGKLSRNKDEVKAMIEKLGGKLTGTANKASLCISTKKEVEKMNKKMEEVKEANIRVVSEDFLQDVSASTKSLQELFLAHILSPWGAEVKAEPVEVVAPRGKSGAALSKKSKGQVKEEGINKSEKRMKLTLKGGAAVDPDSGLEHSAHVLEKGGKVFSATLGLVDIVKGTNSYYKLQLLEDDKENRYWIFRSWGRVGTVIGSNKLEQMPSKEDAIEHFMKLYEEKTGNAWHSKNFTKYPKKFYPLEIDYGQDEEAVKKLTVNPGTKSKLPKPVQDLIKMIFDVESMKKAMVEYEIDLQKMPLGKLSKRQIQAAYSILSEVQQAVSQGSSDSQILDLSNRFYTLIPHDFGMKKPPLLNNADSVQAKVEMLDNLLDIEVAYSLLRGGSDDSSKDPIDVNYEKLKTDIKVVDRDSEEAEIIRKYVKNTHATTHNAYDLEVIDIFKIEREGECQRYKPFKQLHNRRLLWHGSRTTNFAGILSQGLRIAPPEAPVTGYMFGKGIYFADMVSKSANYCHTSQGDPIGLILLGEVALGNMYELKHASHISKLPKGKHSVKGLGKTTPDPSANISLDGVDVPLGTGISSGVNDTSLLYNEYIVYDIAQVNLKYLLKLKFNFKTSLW
Method notes: PARP1 biochemical DELFIA assay (auto-PARylation)
Parameters: recombinant full length human N-terminally FLAG-tagged PARP1
Stated conditions: binned IC50, PARP1 biochemical DELFIA assay
Would you kindly list IC50 for each of these compounds?

# count of solved cases: 3
INSERT INTO results (compound, observed) VALUES
  ('CCc1nc(C(=O)NC)ccc1N1CCC(N2CCCC(c3nc4ccccc4c(=O)[nH]3)C2)CC1 (single isomer, unassigned) [Compound 112a]', '100 to 1000 nM'),
  ('CCc1cnc(C2CCN(C(=O)C3CCN(c4ccc(C(=O)NC)nc4)CC3)CC2)[nH]c1=O [Compound 41]', '100 to 1000 nM'),
  ('CNC(=O)c1ccc(N2CCC(N3CCCC(C)(c4nc5ccccc5c(=O)[nH]4)C3)CC2)cn1 (single isomer, unassigned) [Compound 66b]', '1000 to 10000 nM');

Parameters: items (list). Returns: IC50 for each item.
1. CNC(=O)c1ccc(N2CC(N3CCCC(c4nc5ccccc5c(=O)[nH]4)CC3)C2)cn1 (single isomer, unassigned) [Compound 145b]
2. CNC(=O)c1ccc(N2CCC(N3CCCC(c4ccc(CC(F)(F)F)c(=O)[nH]4)C3)CC2)cn1 (single isomer, unassigned) [Compound 169a]

< 10 nM
1000 to 10000 nM

Here are 3 compounds. What values of IC50 were reported for them?
1. CNC(=O)c1ccc(N2CCC(N3CCC(c4cc5cccc(F)c5c(=O)[nH]4)C3)CC2)nn1 (single isomer, unassigned) [Compound 209a]
2. CNC(=O)c1ccc(N2CCC(N3CCCC(c4ncc(C)c(=O)[nH]4)C3)CC2)cn1 (single isomer, unassigned) [Compound 33a]
3. O=c1[nH]c(C2CCCN(C3CCN(c4ccc(F)cc4F)CC3)C2)nc2ccccc12 (single isomer, unassigned) [Compound 113b]

< 10 nM
> 10000 nM
100 to 1000 nM
